Data provenance is PubChem BioAssay.

Target: Voltage-gated potassium channel subunit beta-2 (Rattus norvegicus) (UniProt P62483)
Sequence (P62483 whole entry, looked up): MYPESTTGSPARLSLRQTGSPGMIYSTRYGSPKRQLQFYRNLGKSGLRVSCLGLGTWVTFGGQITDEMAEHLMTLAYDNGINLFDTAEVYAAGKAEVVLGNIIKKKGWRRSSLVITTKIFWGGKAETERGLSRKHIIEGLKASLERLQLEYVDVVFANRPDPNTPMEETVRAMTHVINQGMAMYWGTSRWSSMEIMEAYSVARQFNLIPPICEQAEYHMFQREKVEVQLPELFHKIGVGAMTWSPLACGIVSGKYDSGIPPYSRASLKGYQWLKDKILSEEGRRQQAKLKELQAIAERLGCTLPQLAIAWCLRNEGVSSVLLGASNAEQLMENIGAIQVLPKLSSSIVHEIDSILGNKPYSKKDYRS
Assay: KvBeta enzyme negative modulators, primary screen, biochemical, NADPH fluorescence (AID 622);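 also: slope of raw intensity against log time taken from 70 to 1610 s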
Details: recombinant KvBeta, 4-cyanobenzaldehyde reduction, at 10 µM, hits give high values
Consider the following molecules; for each one, report its fluorescence slope.
Number, no unit, nothing else.

# lookup: fluorescence slope of CCOc1ccc(NC(=O)CN(C)CC(=O)NC2CCCc3ccccc32)cc1OCC (stereo not drawn)
-0.288

What do we get for `Cc1nc2ccc(NC(=O)NCc3ccco3)cc2s1` ?
-0.338

Entry `Cc1cc(C)nc(SCC(=O)Nc2ncc3c(n2)CCCC3=O)n1` please
-0.622

How about `CCOC(=O)c1[nH]c(C)c(C(=O)NC)c1C` ?
-0.563

How about `CC1(C)Cc2[nH]c(=O)c(C#N)cc2CS1` ?
-0.435

Please answer likewise for CCc1ccc(NC(=O)CSC2=C(C#N)C(c3ccc4c(c3)OCO4)CC(=O)N2)cc1 (stereo not drawn)
-0.491

Try `C=CCn1c(=O)c(C(=O)NCCN(CC)CC)c(O)c2ccccc21` next.
-0.368

Cool, now `CCN(CC)c1nc(-c2cccc(OC)c2O)nc2ccccc12`
-0.5

Do the same for `O=C(CCC(=O)c1cccs1)NCc1ccccc1` please
-0.622

Please do the same for `CCC(=O)Nc1nc(C)c(Oc2ccccc2)c(=O)[nH]1` as well.
-0.412

And the next one, O=C1C=C(O)CC(c2ccc(Cl)c(Cl)c2)C1 (stereo not drawn) ?
-0.41

What about this molecule? `Cc1onc(-c2ccccc2Cl)c1C(=O)Nc1cccnc1`
-0.452

What about `O=C(O)c1ccnc(C(=O)O)c1` ?
-0.434

====

Test: inhibitors of poly I:C-induced TLR3 signaling, primary screen, cell-based, poly I:C stimulus, luciferase, 10K MLSCN set (AID 602277)
Conditions: HEK293-TLR3 RL24 IRF3 luciferase reporter, at 10 µM, hits give high values
PROPERTY: inhibition (%)
Record the value in %, omitting the unit from your answer.

Please report the recorded inhibition for OC(CNCC1COc2ccccc2O1)COCc1cccs1 (stereo not drawn) .
2.31

Cool, now Cc1cc(C)cc(NC(=O)C2CCCN(S(=O)(=O)c3cnc[nH]3)C2)c1 (stereo not drawn)
33.8

Moving on to CCC1CCCCN1C(=O)Cn1c(C(=O)OC)cc2sc(Cl)cc21 (stereo not drawn)
34.6

====

Kindly supply the reported inhibition values for the records listed here.
Target: Dual specificity protein phosphatase 6 (Homo sapiens)
Assay: DUSP6 inhibitors restoring Erk phosphorylation by chemical complementation, primary imaging in DUSP6-transfected HeLa (AID 609);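 also: phospho-Erk level distribution per well compared with pooled transfected vehicle control wells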
Conditions: HeLa MKP-3 transfected, phospho-Erk imaging KS statistic; at 10 µM; hits give high values; cells stimulated with TPA for 15 min
Number only, in %; omit the unit.

Given the compound `CCCCOC(=O)CCc1nc2ccccc2[nH]1` , what is its reported inhibition?
-3.97

Can you handle `Cc1cccn2c(=O)c3cc(C(N)=S)c(=N)n(CCCOC(C)C)c3nc12` next?
12.7

Try this compound next: `Cc1cccc(-c2nnc3n2N=C(c2ccccc2)CS3)c1`
16.8

Param item: `Cc1nnc2n(-c3ccccc3)c(=O)c3c4c(sc3n12)COC(C)(C)C4`
24

Entry `CCCNC1=C(C)C(=O)CC1` please
-0.233

Now the compound CC12CN3CC(C)(CN(C1)C3c1ccc(Cl)cc1Cl)C2O (stereo not given)
-0.584

Now consider `Cc1cc(C)n(CC(=O)c2ccccc2)c(=O)c1C#N` and answer again.
-3.95

Same for CCCCC(CCC(=O)Nc1ccc(C(=O)OC)cc1)C(=O)O (stereo not given)
14

Moving on to the next compound: `CCOC(=O)CCNc1n[nH]c(=O)[nH]c1=O`
15.5

Now the compound `Nc1nnnn1/N=C/c1ccco1`
11

Record: `C=CCOc1nc2c(c(=O)n(Cc3ccc(Cl)cc3)c(=O)n2C)n1C`
-9.91

// query: `COC(=O)c1sc(NC(=O)c2oc3ccccc3c2C)nc1C`
25.8

Another compound to look at: `O=C(CSc1nc2ccccc2s1)Nn1cnnc1`
6.04

Could you do the same for `CCN(CC)CCNc1ncnc2c1[nH]c1ccc(OC)cc12` , please?
3.42

Another compound: CCOc1ccc(NC(=O)CSC2=C(C#N)C(c3ccc4c(c3)OCO4)CC(=O)N2)cc1 (stereo not given)
-6.06

And what about the compound `Cn1c(N)c(C#N)c2c(c1=S)CSC(C)(C)C2` ?
25.8

Moving on to `Brc1ccc2c(c1)CNc1c(ncnc1N1CCOCC1)O2`
3.42

`C/C(=N/n1cnnc1)c1cccnc1` , same question.
3.42

Now this one: CCOc1ccc(C2CC(c3ccccc3)Nc3nc(N)nn32)cc1 (stereo not given)
11.9

Request: `Cc1nn2cnc3sc4c(c3c2nc1=O)CCCC4`
13.9

Proceed to `COc1ccc(-n2ncc3c(N4CCC(C(N)=O)CC4)ncnc32)cc1`
13.4

Repeat with `CC1(C)Cc2c(c(N3CCOCC3)nc3sc4c(=O)[nH]cnc4c23)CS1`
7.93

Thanks! And `CC1(C)Cc2c(C#N)c(OCC(=O)c3ccccc3)nc(-c3ccoc3)c2CO1` ?
-0.233

Could you do the same for `O=C(NCc1ccccc1)/C(=N\O)c1ccccc1` , please?
-1.98

Further, for `Cn1c(=O)c2c(nc(NCc3ccco3)n2CCc2ccccc2)n(C)c1=O` ?
1.98

Follow-up entry: CN1C(=O)C2(c3ccccc31)C1CCCC=C1C(C#N)=C(N)C2(C#N)C#N (stereo not given)
29.4

Do the same for `NC(=O)C1CCN(CCC(=O)Nc2ccc(Br)cc2)CC1` please
7.42

Another: `CC1(C)Cc2c(c(-c3ccccc3Cl)[nH]c(=O)c2C#N)CO1`
11.9

Next record, please: `CCOc1ccc(-c2nc(C#N)c(NCC(C)C)o2)cc1`
-2.69

Entry to check: COc1ccc(C(O)C(CN2CCOCC2)c2ccccc2)cc1 (stereo not given)
-2.59

Repeat for the following compound: `Cc1c(C)n(C(=O)CSc2nccn2C)c2ccccc12`
1.63

Again, but for CCC(=NC(CC)CO)C1=C(O)CC(C)(C)CC1=O (stereo not given)
-13.3

Another: `CN(CCCCCC(=O)/C=N/O)Cc1ccccc1`
-9.53

Also check `COC(=O)c1ccc(CN(C(C)=O)c2ccccc2)o1`
15.4

Let us now turn to `COC(=O)CCc1c(C)[nH]c(=S)[nH]c1=O`
-4.78
